Listed here: items and their measured pKd.
Molecular target: T1, human CD3e/g (human, UniProt P07766 23-126; P09693 23-116)
T1 construct: Bought soluble protein; also called hCD3e/g; human CD3e/g (Acro CDD-C52W4)
T1 sequence (P07766 23-126, chain 1 of 2): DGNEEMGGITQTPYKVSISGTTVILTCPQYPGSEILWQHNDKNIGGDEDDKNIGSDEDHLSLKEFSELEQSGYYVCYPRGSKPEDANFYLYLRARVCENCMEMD
T1 sequence (P09693 23-116, chain 2 of 2): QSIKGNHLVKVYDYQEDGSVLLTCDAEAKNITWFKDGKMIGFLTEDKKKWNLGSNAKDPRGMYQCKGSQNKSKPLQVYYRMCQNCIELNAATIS
Experiment: SPR (Carterra LSA), mAb on chip
pKd: −log10 of the molar value.
measured quantity: pKd

binder	measured quantity	recorded number
mAb 122 (antibody, V domains shown, VH and VL only) VH: EVQLVESGGGLVKTGGSLRLSCVASGFSFKKAWMNWVRQAPGKGLEWVGRIKRNTDGGTADYAAPVKGRFTLSRDDSKKTLYLQMNSLKTEDTAVYYCTTLDSSSRYVGYYYMDVWGKGTTVTVSS VL: DIQMTQSPSSVSASVGDRVIITCRASQDINNWLAWYQQKPGKVPKLLIYTASSLQSGVPSRFSGSGSGTDFTLTIGSLQPEDFATYYCQQAHSLPITFGQGTRLEIK	pKd	7.89
mAb 113 (antibody, V domains shown, VH and VL only) VH: EVQLVESGGGLVKTGGSLRLSCVASGFSFKKAWMNWVRQAPGKGLEWVGRIKRNTDGGTTDYAAPVKGRFTLSRDDSKNTLYLQMNSLKTEDTAVYYCTTLDSSSWYVGYYYMDVWGKGTTVTVSS VL: DIQMTQSPSSVSASVGDRVTITCRASQDINNWLAWYQQKPGKAPKILIYTASSLQSGVPSRFSGSGSGTDFTLTISSLQPEDFATYYCQQAHSLPITFGQGTRLEIK	pKd	7.54
mAb 191 (antibody, V domains shown, VH and VL only) VH: QVQLVESGGGVVQPGRSLRLSCAASGFTFSGYGMHWVRQAPGKGLEWVAIIYYNGKKEYYADSVKGRFTISRDNSKNTLYLQMNSLRAEDTAVYYCTRGEGYNWFDPWGQGTLVTVSS VL: EIVMTQSPATLSVSPGERATLSCRASQSVSSNLAWYQQKPGQAPRLLIYGASTRATGIPARFSGSGSGTDFTLTISSLQSEHFAVYYCQQYTNWPLTFGGGTKVEIK	pKd	7.82
